# target under test: MD-2 (myeloid differentiation protein 2, rhMD-2) (Homo sapiens)
# Construct: recombinant human MD-2 (rhMD-2, R&D Systems)
# Sequence (Q9Y6Y9 19-160): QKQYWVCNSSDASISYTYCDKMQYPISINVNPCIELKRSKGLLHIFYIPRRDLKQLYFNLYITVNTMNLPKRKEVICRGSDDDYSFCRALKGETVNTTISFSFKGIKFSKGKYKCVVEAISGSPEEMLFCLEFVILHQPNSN
# test: SPR (ProteOn XPR36); supported by bis-ANS displacement and biotin-LPS competition ELISA; R90A and Y102A abolish binding
readout: Kd (µM)
Numeric answer only, unit µM assumed.

What reported Kd corresponds to COc1cccc(/C=C/C(=O)c2ccc(O)c(O)c2)c1OC on MD-2 (myeloid differentiation protein 2, rhMD-2) (Homo sapiens)?
19.1
